Assay details: clinical
Measurement context: human, in vivo, 300 mg
Measured parameter: AUC (µg·h/mL)
Answers are plain numbers, in µg·h/mL.

*Q* Need AUC, item CC(C)(C)[C@H](NC(=O)C(F)(F)F)C(=O)N1C[C@H]2[C@@H]([C@H]1C(=O)N[C@H](C#N)C[C@@H]1CCNC1=O)C2(C)C [NIR, Nirmatrelvir]
*A* 107
